TARGET ENTITY: Tyro3 (Homo sapiens (Human))
Sequence (Q06418 41-890): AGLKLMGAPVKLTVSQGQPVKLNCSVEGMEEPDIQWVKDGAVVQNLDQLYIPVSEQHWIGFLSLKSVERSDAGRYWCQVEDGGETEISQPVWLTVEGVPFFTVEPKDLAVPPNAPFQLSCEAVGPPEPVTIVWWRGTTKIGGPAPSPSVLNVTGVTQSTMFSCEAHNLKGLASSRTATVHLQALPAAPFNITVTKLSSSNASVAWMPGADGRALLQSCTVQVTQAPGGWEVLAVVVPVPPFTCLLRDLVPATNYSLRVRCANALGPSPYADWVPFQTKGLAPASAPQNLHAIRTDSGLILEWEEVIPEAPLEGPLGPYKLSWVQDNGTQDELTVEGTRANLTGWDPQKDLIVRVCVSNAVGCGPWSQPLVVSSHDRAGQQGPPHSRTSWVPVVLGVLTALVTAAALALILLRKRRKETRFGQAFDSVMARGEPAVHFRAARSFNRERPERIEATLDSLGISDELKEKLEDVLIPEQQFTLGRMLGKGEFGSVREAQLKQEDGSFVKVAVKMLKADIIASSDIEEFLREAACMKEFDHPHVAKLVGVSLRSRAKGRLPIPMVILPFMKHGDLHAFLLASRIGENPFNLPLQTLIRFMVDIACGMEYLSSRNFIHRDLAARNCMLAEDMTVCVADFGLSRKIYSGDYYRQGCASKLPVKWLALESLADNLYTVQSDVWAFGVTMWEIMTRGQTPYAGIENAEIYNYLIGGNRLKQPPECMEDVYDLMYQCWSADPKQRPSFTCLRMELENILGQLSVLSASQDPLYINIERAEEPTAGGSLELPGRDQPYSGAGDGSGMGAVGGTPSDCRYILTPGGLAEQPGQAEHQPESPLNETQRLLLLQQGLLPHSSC
PROTOCOL: Microfluidic Capillary Electrophoresis (MCE) kinase activity assay, Tyro3
Format: biochemical
OBSERVED PROPERTY: IC50

Before answering, review these 3 worked examples.
1. O[C@H]1CC[C@H](Nc2nc(Nc3ccnc(N4CCCCC4)c3)ncc2C2CCNCC2)CC1 | 1 to 30 µM
2. O[C@H]1CC[C@H](Nc2nc(Nc3ccnc(Cl)c3)ncc2C2CCNCC2)CC1 | 0.01 to 0.1 µM
3. Cc1cc(Nc2ncc(C3CCN(C4CCCC4)CC3)c(N[C@H]3CC[C@H](O)CC3)n2)ccn1 | 0.01 to 0.1 µM

As a next step, examine the molecule that follows.
Task item: Which IC50 is listed for `NC(=O)c1cc(Nc2ncc(C3CCN(C4CCCC4)CC3)c(N[C@H]3CC[C@H](O)CC3)n2)ccn1` ?
Reply: 0.01 to 0.1 µM
